B1: Hairpin Ribozyme (parent)
chain: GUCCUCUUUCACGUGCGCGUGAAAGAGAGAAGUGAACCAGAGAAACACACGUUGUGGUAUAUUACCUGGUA

variants of: B1; assay: self-cleavage, relative activity (ratio to wild type); higher = more cleavage; co-transcriptional
Threshold check on self-cleavage: at or above 0.2 gives Y, strictly below gives N.

C18A G34U: Y
A26G U33G: N
C46G C50G: Y
U33G A49U: Y
G25A C37G: N
U7C U70G: Y

### Prompt Has C4A A28U a recorded self-cleavage greater than or equal to 0.2?
### Response N

### Prompt Has G1C G68U a recorded self-cleavage greater than or equal to 0.2?
### Response Y

### Prompt Has G34C A47U a recorded self-cleavage greater than or equal to 0.2?
### Response Y

### Prompt Has C18U G68U a recorded self-cleavage greater than or equal to 0.2?
### Response Y

### Prompt Has A39C G69C a recorded self-cleavage greater than or equal to 0.2?
### Response N

### Prompt Has G19A A44G a recorded self-cleavage greater than or equal to 0.2?
### Response N

### Prompt Has G13A A28U a recorded self-cleavage greater than or equal to 0.2?
### Response Y

### Prompt Has C37G A71C a recorded self-cleavage greater than or equal to 0.2?
### Response Y

### Prompt Has A23C C65A a recorded self-cleavage greater than or equal to 0.2?
### Response Y

### Prompt Has C3G U53A a recorded self-cleavage greater than or equal to 0.2?
### Response Y

### Prompt Has C16A U60C a recorded self-cleavage greater than or equal to 0.2?
### Response Y

### Prompt Has G27A A36C a recorded self-cleavage greater than or equal to 0.2?
### Response Y
